system: Plasmodium falciparum; experiment: Calibr Malaria Delayed Death Assay SOP; assay type: functional, organism-based; set-up: scale not given: in the data most compounds retested in dose-response had high values; conditions: concentration 4.99e-06 (unit not given; other assays of the set use mol/L)
In all, about 38,000 compounds went through this assay and about 1,200 (3.2%) showed an effect of 50% or more. The median lay at about -58%. Many of the other results were omitted from the sample, so strong results are more common in it than they were.
Percent Effect values by entry
For clarity, give the value followed by its unit.

Completed entries (count: 6):
> print(dat)
                                   compound  measured
1  COCCN1CCCCC12CC(=O)N(c1cccc(C#N)c1)C2.O=C(O)C(F)(F)F (configuration not stated)   -143.4%
2  Cc1nn(CC(=O)N2CCN(Cc3cnn(C)c3C)CC2)cc1Cl   -81.13%
3  CC(C)N(C)Cc1cnc2n1CCN(CCc1ccccc1)C2.O=C(O)C(F)(F)F.O=C(O)C(F)(F)F   0.4179%
4  Cc1ccc(C(=O)N2CC[C@@]3(O)CCCC[C@H]3C2)cc1   -98.64%
5  CN(C)CC1CSCCCN1S(=O)(=O)Cc1cccc(F)c1 (configuration not stated)    58.19%
6  O=C1CC2(CCN(Cc3ccsc3)C2)CN1c1ccc2c(c1)OCO2 (configuration not stated)   -25.08%

Query string: Please tell me: Percent Effect of CCOc1ccc(CNC(C)c2cccc(S(=O)(=O)NC)c2)cc1 (configuration not stated) , system Plasmodium falciparum?
Result string: 46.18%

* * *

system: Plasmodium falciparum; assay: Calibr Malaria Delayed Death Assay SOP; assay type: functional, organism-based; set-up: scale not given: in the data most compounds retested in dose-response had high values; settings: concentration 4.99e-06 (unit not given; other assays of the set use mol/L)
Screen size: about 38,000 compounds; about 1,200 (3.2%) showed an effect of 50% or more. The median lay at about -58%. The sample as a whole holds a higher share of strong results than the screen did.
Percent Effect values by entry
Note: unit % is implicit; provide only the numeric part.

Completed entries (count: 6):
> print(dat)
                                   compound  measured.quantity  measured
1  CC1CCN(C(=O)c2cnc3cc(C(=O)N(C)C)n(C)c3c2)CC1     Percent Effect    -87.49
2  CC(C)NC(=O)CC1CC2(CCN(S(C)(=O)=O)CC2)c2ccccc21 (stereo not drawn)     Percent Effect    -30.05
3  CN1CC(=O)N(c2ccccc2)CC12CCN(C(=O)c1cnccn1)C2.O=C(O)C(F)(F)F (stereo not drawn)     Percent Effect    -66.28
4  COCCN1CCCCC12CC(=O)N(c1ccccc1OC)C2.O=C(O)C(F)(F)F (stereo not drawn)     Percent Effect    -87.11
5     CSCCC(=O)NCc1cc2n(n1)CCCN(C1CCCCC1)C2     Percent Effect    -96.84
6     CCc1nc(CN(C)C(=O)c2ccc(OCCCOC)nc2)cs1     Percent Effect    -70.62

Query string: Which Percent Effect is reported for this compound? CNCc1nc(-c2ccc3c(c2)OCO3)c[nH]1.Cl.Cl
Result string: -83.48

Query string: Which Percent Effect is reported for this compound? CS(=O)(=O)Nc1nn(Cc2ccc(F)cc2)cc1Br
Result string: -19.12

* * *

tested on: Plasmodium falciparum; assay: Calibr Malaria Delayed Death Assay SOP; assay type: functional, organism-based; design: scale not given: in the data most compounds retested in dose-response had high values; settings: concentration 4.99e-06 (unit not given; other assays of the set use mol/L)
The whole screen tested about 38,000 compounds, of which about 1,200 (3.2%) showed an effect of 50% or more. The median lay at about -58%. The sample holds strong results, similar compounds and a random draw of the others, so the mix is not that of the screen.
Use -10% as the dividing line for Percent Effect, with the line itself on the met side and lower values as not met.

> print(dat)
                                   compound  answer.label
1  Cc1nc(C(=O)N2CCN(S(C)(=O)=O)CC2)c(-c2ccccc2)s1       not met
2  CSC1(CNC(=O)NC(C)c2ccc(F)cc2)CCOCC1 (centres undefined)       not met
3  O=C(O)C(F)(F)F.c1cnc(NC2COC3(CCN(Cc4ccoc4)CC3)C2)nc1 (centres undefined)       not met
4  CCOC(=O)N1CCN(c2nc(CCN)nc3sc(C)c(C)c23)CC1           met
5  O=C(NCCC1CCN(CC(F)(F)F)CC1)C1CCCO1 (centres undefined)       not met

Query string: Quick check: does CC1CCc2[nH]c(=O)c(C(=O)N3CCc4ccccc4C3)cc2C1 (centres undefined) have Percent Effect greater than or equal to -10%?
Result string: not met

Query string: Quick check: does O=C(c1ccc(=O)[nH]c1)N1C[C@@H]2CC[C@H](C1)N(Cc1ccccc1)C2 have Percent Effect greater than or equal to -10%?
Result string: not met

Query string: Quick check: does Cc1sc2nc(CCN)nc(N3CCC(N4CCCC4)CC3)c2c1C have Percent Effect greater than or equal to -10%?
Result string: met
